- Test system: A204 cells
- METHOD_DESCRIPTION: Alamar Blue cell proliferation assay
- Type: cell-based
- CONDITION_DETAILS: Homo sapiens; A204, 72 h drug exposure
PROPERTY: IC50 (nM)
Please respond with the number in nM and leave the unit unwritten.

Item `CN(C)CCNC(=O)c1cccc(NC(=O)Nc2ccc(N(CCCl)CCCl)cc2)c1` ; assay system A204 cells; IC50 reported as 80

Values compiled from paper PMC5190008.
